- System: Breast_SkBr3 (SKBr3, breast carcinoma)
- assay: Cell proliferation assay (ATPlite), SkBr3
- Format: cell-based
- condition-parameters: Homo sapiens, SK-BR-3; TABLE C; 72 hours, 0.5% fetal bovine serum, ATP content; read-out: IC50 grading, Breast_SkBr3
measured-endpoint: IC50

[Q] Record request: IC50 value, item C#Cc1cccc(Nc2ncnc3cc(OC)c(OCCCCCCC(=O)NO)cc23)c1 [Compound 12]
[A] 100 to 1000 nM

----------
- assay: in vivo
- condition-parameters: male, CD-1, mouse, ip, 60 mg/kg, AUC (h * ng/ml)
measured-endpoint: AUC (ng·h/mL)
Answer with a number only, understood to be in ng·h/mL.

[Q] Record request: AUC value, item C#Cc1cccc(Nc2ncnc3cc(OC)c(OCCCCCCC(=O)NO)cc23)c1
[A] 5720

----------
- assay: in vivo
- condition-parameters: male, CD-1, mouse, ip, 60 mg/kg, Cmax (uM)
measured-endpoint: Cmax (µM)
Answer with a number only, understood to be in µM.

[Q] Record request: Cmax value, item C#Cc1cccc(Nc2ncnc3cc(OC)c(OCCCCCCC(=O)NO)cc23)c1 [Compound 12]
[A] 14.4

----------
- Tested on: Prostate_22RV1 (22RV1, prostate carcinoma)
- assay: Cell proliferation assay (ATPlite), 22RV1
- Format: cell-based
- condition-parameters: Homo sapiens, TABLE C, 72 hours, 0.5% fetal bovine serum, ATP content, read-out: IC50 grading, Prostate_22RV1
pIC50: −log10 of the molar value.
measured-endpoint: pIC50

[Q] Entry C#Cc1cccc(Nc2ncnc3cc(OC)c(OCCCCCCC(=O)NO)cc23)c1 , system Prostate_22RV1 (22RV1, prostate carcinoma): what pIC50 was measured?
[A] 6.00 to 7.00

----------
- Tested on: Lung_H1975
- assay: Cell proliferation assay (ATPlite), H1975
- Format: cell-based
- condition-parameters: Homo sapiens, NCI-H1975; TABLE C; 72 hours, 0.5% fetal bovine serum, ATP content; read-out: IC50 grading, Lung_H1975
pIC50: −log10 of the molar value.
measured-endpoint: pIC50

[Q] Record request: pIC50 value, item COc1cc2ncnc(Nc3ccc(F)c(Cl)c3)c2cc1OCCCCCCC(=O)NO
[A] 6.00 to 7.00

[Q] Record request: pIC50 value, item C#Cc1cccc(Nc2ncnc3cc(OC)c(OCCCCCCC(=O)NO)cc23)c1
[A] 6.00 to 7.00

[Q] Record request: pIC50 value, item C#Cc1cccc(Nc2ncnc3cc(OC)c(NC(=O)CCCCCCC(=O)NO)cc23)c1
[A] 5.00 to 6.00

----------
- measured-target: C-Raf (Homo sapiens, UniProt P04049, Y340D/Y341D)
- Sequence (P04049 whole entry Y340D/Y341D): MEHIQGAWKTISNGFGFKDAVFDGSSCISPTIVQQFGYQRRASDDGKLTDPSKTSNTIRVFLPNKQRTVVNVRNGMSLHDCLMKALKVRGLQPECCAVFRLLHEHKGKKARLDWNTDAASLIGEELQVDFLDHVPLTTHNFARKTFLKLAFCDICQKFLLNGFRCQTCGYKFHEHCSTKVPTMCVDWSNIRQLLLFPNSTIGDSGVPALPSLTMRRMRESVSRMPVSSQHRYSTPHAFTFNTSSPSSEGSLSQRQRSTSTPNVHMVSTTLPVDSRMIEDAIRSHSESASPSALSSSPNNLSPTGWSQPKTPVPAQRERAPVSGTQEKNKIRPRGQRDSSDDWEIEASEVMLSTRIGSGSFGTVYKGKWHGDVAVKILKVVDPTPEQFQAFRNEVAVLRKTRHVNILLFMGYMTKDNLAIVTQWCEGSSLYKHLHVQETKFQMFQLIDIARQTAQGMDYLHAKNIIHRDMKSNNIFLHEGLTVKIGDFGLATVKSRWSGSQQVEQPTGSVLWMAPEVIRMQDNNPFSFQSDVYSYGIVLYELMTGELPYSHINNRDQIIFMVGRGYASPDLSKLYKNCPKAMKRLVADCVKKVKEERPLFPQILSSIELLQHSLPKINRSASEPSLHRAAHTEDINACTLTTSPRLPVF
- assay: Raf kinase assay (Upstate kit, MEK-1 substrate, dot blot), C-Raf
- Assay type: biochemical
- condition-parameters: TABLE 6-B (Section 6 compounds)
- Experimental: The Raf kinase assay was performed by following the protocol of Raf kinase assay kit (B-Raf, Upstate, catalog#17-359; C-Raf, Upstate, catalog#17-360) with modifications. Briefly, assay buffer, ATP, substrate and Raf kinase were mixed in a 96 well assay plate. […] The nitrocellulose filter was subsequently incubated with secondary IRDye 800CW goat anti-rabbit antibody (Licor Bioscience, catalogue #926-32211) before reading the signal on an Odyssey imager (Licor Bioscience).
Can you tell me IC50 for the items I'm about to list?

[Q] Record request: IC50 value, item O=C(CCCCCNC(=O)c1cc(Oc2ccc(NC(=O)Nc3ccc(Cl)c(C(F)(F)F)c3)cc2)ccn1)NO
[A] 1 to 10 µM

[Q] Record request: IC50 value, item O=C(CCCCCCC(=O)Nc1cc(Oc2ccc(NC(=O)Nc3ccc(Cl)c(C(F)(F)F)c3)cc2)ccn1)NO
[A] < 0.1 µM
